Source: patent US4361573A

Test: saluretic efficiency test in rats: elimination of water, sodium, chloride and potassium in 6 h urine after oral dosing
Assay type: in vivo
Conditions: Rattus norvegicus; rats, oral, 40 μmol/kg body wt.; deviation from control mean plus twice the standard deviation; 6 h urine; read-out: Mean percentage variation in the elimination of H2O
As shown below, each of these molecules has a reported change in vivo at 40 µmol/kg value.
Note to self: number, then unit, no commentary.

Challenge: change in vivo at 40 µmol/kg for COc1c(C)cc(C(O)(c2cc(C(C)C)c(OC)c(C(C)C)c2)C(C)N2CCCCC2)cc1C (centres unmarked) [T 2266] ?
Response given: -12.9%

Challenge: change in vivo at 40 µmol/kg for Cc1c(C(O)(c2ccccc2)C(C)N2CCCCC2)cc2c(c1C)OCCC2 (centres unmarked) [T 2129] ?
Response given: 23.9%

Challenge: change in vivo at 40 µmol/kg for COc1ccc(C(O)(c2cc(C(C)C)c(OC)c(C(C)C)c2)C(C)N2CCCCC2)cc1OC (centres unmarked) [T 1882] ?
Response given: 17.7%

Challenge: change in vivo at 40 µmol/kg for COc1ccc(C(O)(c2cc(C(C)(C)C)cc(C)c2OC)C(C)N2CCCCC2)cc1OC (centres unmarked) [T 2464] ?
Response given: 49.8%

Challenge: change in vivo at 40 µmol/kg for CCCC(C)(C)c1cc(C)c(OC)c(C(O)(c2ccccc2)C(C)N2CCCC2)c1 (centres unmarked) [T 2111] ?
Response given: 36.8%

* * *

As shown below, each of these compounds has a reported LD50 value.
Experiment: comparison of toxicity in mice: oral LD50 by the Lichtfiel & Wilcoxon method
Format: in vivo
Settings: mouse, in vivo, observation period 7 days, 95% confidence limit in brackets, read-out: LD50

Examples with answers:
COc1cc(C)c(C(O)(c2ccccc2)C(C)N2CCCCC2)cc1C(C)C (stereo not drawn)    > 3200 mg/kg
Cc1c(C(O)(c2ccccc2)C(C)N2CCCCC2)cc2c(c1C)OCCC2 (stereo not drawn)    > 3200 mg/kg

Challenge: LD50 for COc1c(C)cc(C(O)(c2cc(C(C)C)c(OC)c(C(C)C)c2)C(C)N2CCCCC2)cc1C (stereo not drawn) ?
Response given: > 3200 mg/kg
